system: biotinyl-Leu-oxazolone; test: self-aminoacylation, catalytic enhancement (BLO) (fold over background); higher = more active; k-Seq, kA / k0A0; sequences stand for … in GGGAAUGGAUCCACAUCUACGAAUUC…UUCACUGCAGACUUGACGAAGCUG
This sample holds only a part of the variants without activity.
Measured endpoint: self-aminoacylation

// field: self-aminoacylation; key: CCAGACUUCAAGCAAUCGGCC [Fam1B.1 aminoacylation ribozyme variant] ; value = 4.53

The recorded self-aminoacylation for AAGGUUGCUAACAGUCGCAAG [Fam3.1 aminoacylation ribozyme variant] is 1.83

Briefly, self-aminoacylation measured for CCGCACUACAAGCAAUCGGUC [Fam1B.1 aminoacylation ribozyme variant] : 1.02

AUUACCCUGGUCAUCUAGUGC [Fam2.1 aminoacylation ribozyme variant] yielded self-aminoacylation of 1.08
